Provide the reported % depol. hemoz. of each item.
tested on: synthetic hemozoin; assay: Depolymerization of synthetic hemozoin in vitro; type: biochemical; conditions: Table 1; 50 mM test compound, acetate buffer pH 5.0, 37° C., 16 hours
Numeric only. Scale: %

Need % depol. hemoz., item `Cl.N=C(N)NN=Cc1ccccc1O`
3.5

Need % depol. hemoz., item `CC(=NNC(=N)N)c1ccc(OCc2ccccc2)c(C)c1O.Cl`
1.9

Need % depol. hemoz., item `Cl.N=C(N)NN=Cc1c(N)oc2ccc(Cl)cc2c1=O`
0.6

Need % depol. hemoz., item `Cl.N=C(N)NN=Cc1c(O)ccc2ccccc12`
4.3

Need % depol. hemoz., item `Cl.N=C(N)NN=Cc1cccc(O)c1O`
4.1

Need % depol. hemoz., item `COc1ccc(O)c(C=NNC(=N)N)c1.Cl`
0.9

Need % depol. hemoz., item `CC1=CC(=O)c2cc(CC=NNC(=N)N)ccc2C1=O.Cl`
0.4

Need % depol. hemoz., item `Cl.N=C(N)NN=CCc1ccccc1O`
0.4

Need % depol. hemoz., item `Cl.N=C(N)NN=CCc1ccc(O)c(O)c1`
0.5
